Each recorded value in this set is attributed to paper PMC4858680.

Parameter Percent control: see the listing below.
- study_system: FRK (Homo sapiens)
- Sequence (P42685 whole entry): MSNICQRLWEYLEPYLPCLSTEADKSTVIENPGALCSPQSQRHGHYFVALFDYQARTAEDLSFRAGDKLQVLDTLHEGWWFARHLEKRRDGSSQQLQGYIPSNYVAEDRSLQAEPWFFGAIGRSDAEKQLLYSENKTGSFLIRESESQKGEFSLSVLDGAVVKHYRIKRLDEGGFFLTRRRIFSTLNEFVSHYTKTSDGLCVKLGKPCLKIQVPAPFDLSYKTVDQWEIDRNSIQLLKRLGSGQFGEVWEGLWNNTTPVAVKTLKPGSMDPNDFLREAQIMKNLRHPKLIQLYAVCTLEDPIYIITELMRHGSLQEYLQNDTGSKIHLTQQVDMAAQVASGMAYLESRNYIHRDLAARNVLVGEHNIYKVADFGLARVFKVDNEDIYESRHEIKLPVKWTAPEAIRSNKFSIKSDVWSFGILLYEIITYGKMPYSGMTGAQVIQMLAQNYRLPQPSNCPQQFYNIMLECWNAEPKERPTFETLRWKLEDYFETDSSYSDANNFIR
- test_parameters: 10 μM

Consider the worked cases shown below.
- Cc1ccc(NC(=O)c2ccc(CN3CCN(C)CC3)cc2)cc1Nc1nccc(-c2cccnc2)n1 [Imatinib, reference compound]: 13.0%
- COc1cc2c(Nc3ccc(Br)cc3F)[n+]([Pt-2]3([Cl])[NH2+]C4CCCCC4[NH2+]3)cnc2cc1OCC1CCN(C)CC1 (stereo not shown) [3b, oxaliplatin-vandetanib]: 56%
- Cc1ccc(NC(=O)c2ccc(CN3CCN(C)CC3)cc2)cc1Nc1nccc(-c2cccnc2)[n+]1[Pt-2]1([Cl])[NH2+]C2CCCCC2[NH2+]1 (stereo not shown) [1b, oxaliplatin-imatinib]: 58%

Turning now to a further record.
Exercise: Quick one: Percent control for C#Cc1cccc(Nc2c3cc(OCCOC)c(OCCOC)cc3nc[n+]2[Pt@SP2-2]([NH3+])([NH3+])[Cl])c1 [2a, cisplatin-erlotinib] ?
Solution: 75%
